Catalogue of relative KD to parent values
# Measured target: T1, His-tagged CEACAM1 (human, UniProt P13688 35-428)
# T1 construct: 45 kDa SPR analyte; also called CEACAM1-HIS; CEACAM1 analyte
# T1 sequence: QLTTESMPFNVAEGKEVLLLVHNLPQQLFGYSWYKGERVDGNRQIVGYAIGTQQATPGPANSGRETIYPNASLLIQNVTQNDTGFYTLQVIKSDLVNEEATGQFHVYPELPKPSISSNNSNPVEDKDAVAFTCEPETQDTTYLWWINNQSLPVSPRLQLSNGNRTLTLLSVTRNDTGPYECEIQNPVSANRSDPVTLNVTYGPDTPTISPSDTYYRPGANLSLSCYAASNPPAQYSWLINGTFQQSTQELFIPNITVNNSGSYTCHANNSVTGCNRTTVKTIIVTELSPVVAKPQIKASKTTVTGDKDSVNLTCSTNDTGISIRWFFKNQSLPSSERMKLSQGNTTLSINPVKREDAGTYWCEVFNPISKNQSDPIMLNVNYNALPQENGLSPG
# Experiment description: SPR single-cycle, supernatant IgG captured

### Prompt # return recorded relative KD to parent for entry 8H3_9E5/CP08F05 (antibody, IgG4, V domains shown, IgG4 (S241P), kappa) VH: EVQLLESGGGLVQPGGSLRLSCAASGFIFSSHGMSWVRQAPGKGLEWVATISSGGTYTYYPDSVKGRFTISRDNSKNTLYLQMNSLKAEDTAMYYCARHGFDYFPYWFAHWGQGTLVTVSS VL: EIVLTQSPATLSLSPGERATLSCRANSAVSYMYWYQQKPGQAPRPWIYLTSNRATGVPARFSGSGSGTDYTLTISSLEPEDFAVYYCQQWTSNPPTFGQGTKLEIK
### Response 2

### Prompt # return recorded relative KD to parent for entry 8H3_9C2/CP08F05 (antibody, IgG4, V domains shown, IgG4 (S241P), kappa; also called 8H3_9C2/CPO08_F05) VH: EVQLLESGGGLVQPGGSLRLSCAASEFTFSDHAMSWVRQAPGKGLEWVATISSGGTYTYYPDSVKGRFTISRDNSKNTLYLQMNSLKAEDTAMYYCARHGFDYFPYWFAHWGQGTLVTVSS VL: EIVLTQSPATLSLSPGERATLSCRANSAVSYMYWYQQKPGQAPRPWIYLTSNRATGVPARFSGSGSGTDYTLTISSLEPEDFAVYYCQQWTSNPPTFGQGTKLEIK
### Response 6

### Prompt # return recorded relative KD to parent for entry 9B3_9E5_8H3/CP08E05 (antibody, IgG4, V domains shown, IgG4 (S241P), kappa) VH: EVQLLESGGGLVQPGGSLRLSCAASGFTFNAHAISWVRQAPGKGLEWVATISSGGTYTYYPDSVKGRFTISRDNSKNTLYLQMNSLKAEDTAMYYCARHGFDYFPYWFAHWGQGTLVTVSS VL: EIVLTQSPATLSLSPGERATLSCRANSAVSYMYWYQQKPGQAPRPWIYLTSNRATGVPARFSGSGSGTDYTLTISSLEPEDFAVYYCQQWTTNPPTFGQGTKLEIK
### Response 1.9

### Prompt # return recorded relative KD to parent for entry 9B3_9E5/CP08F05 (antibody, IgG4, V domains shown, IgG4 (S241P), kappa) VH: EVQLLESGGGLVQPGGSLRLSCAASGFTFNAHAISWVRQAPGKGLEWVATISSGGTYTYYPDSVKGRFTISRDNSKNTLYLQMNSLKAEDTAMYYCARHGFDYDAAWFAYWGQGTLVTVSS VL: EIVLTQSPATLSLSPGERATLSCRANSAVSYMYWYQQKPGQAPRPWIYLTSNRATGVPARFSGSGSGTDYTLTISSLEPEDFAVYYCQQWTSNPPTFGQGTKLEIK
### Response 5.9

Numbers sourced from patent US20250074980A1.
